System: retinal ganglion cell axons
Test: Protection of retinal ganglion cell axons from degeneration following optic nerve transection (Table V)
Type: in vivo
Conditions: ± SEM
Excerpt: Efficacy of representative compounds from different immunophilin ligand series in protecing retinal gangiou cell axons from degeneration following optic nerve transection is set forth in Table V.
Value type: RT97 + RGC axon density 14 days after ON transection (% ON axons rescued)

Compound	Result
CCC(C)(C)C(=O)C(=O)N1CCC[C@H]1C(=O)SCCC(c1ccccc1)c1ccccc1 [M]	−6.3% + 3.9 SEM
CCC(C)(C)C(=O)C(=O)N1CCCC1C(=O)OC(CCc1ccccc1)CCc1ccccc1 (stereo not shown) [E]	56.6% ± 9.4% SEM
CCC(C)(C)C(=O)C(=O)N1CCC[C@H]1C(=O)O [L]	7.8% ± 3.0% SEM
CCC(C)(C)C(=O)C(=O)N1CCC[C@H]1C(=O)OCCCc1cccnc1 [GPI 1046]	60.5% ± 3.9 SEM
CCC(C)(C)C(=O)C(=O)N1CCCC[C@H]1C(=O)SCCC(c1ccccc1)c1ccccc1 [K]	7.8% ± 3.0% SEM
O=C(SCCCc1ccccc1)[C@@H]1CCCN1S(=O)(=O)Cc1ccccc1 [C]	60.4% ± 3.1% SEM
O=C(OCCCc1ccccc1)[C@@H]1CCCN1S(=O)(=O)Cc1ccccc1 [D]	58.4% ± 6.4% SEM

---

molecular target: FKBP12 (Homo sapiens, UniProt P62942); test: Inhibition of peptidyl-prolyl isomerase (rotamase) activity of FKBP, chymotrypsin-coupled assay, apparent Ki; type: biochemical; settings: Table V comments; read-out: Ki rotamase
Sequence (P62942 whole entry, species assumed): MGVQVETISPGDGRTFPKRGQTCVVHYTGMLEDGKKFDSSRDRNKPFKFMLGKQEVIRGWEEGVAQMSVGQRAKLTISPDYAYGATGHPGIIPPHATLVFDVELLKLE
# strict inequality: Ki < 300 nM yields fulfilled, everything else yields not fulfilled

Structure smiles	Group label
O=C(OCCCc1cccnc1)[C@@H]1CCCN1C(=S)NC1CCCCC1	fulfilled
O=C(SCCCc1ccccc1)[C@@H]1CCCN1S(=O)(=O)Cc1ccccc1	fulfilled
O=C(SCCCc1ccccc1)[C@@H]1CCCN1C(=O)NC12CC3CC(CC(C3)C1)C2	fulfilled
CCC(C)(C)C(=O)C(=O)N1CCS[C@@H]1C(=O)OCCCc1cccnc1	fulfilled
CN(C)C(=O)N1CCC[C@H]1C(=O)SCCCc1ccccc1	not fulfilled
